test: NCI Yeast Anticancer Drug Screen. Data for the mec2-1 strain (AID 157)
experimental conditions: S. cerevisiae mec2-1 strain, at 50.0 µM (retest, dose inferred, filed as 5.0), active compounds read high
This is part of a sample that, as a whole, favours compounds with a hit. Of some 79,000 tested, about 15% had one in any assay.
Record rule met whenever growth inhibition is at 90% or higher; record rule not met when lower.

IN: // inclusive: growth inhibition at least 90%? input: O=C1c2ccccc2C(=O)c2c(O)c(O)cc(O)c21
OUT: rule met

IN: // inclusive: growth inhibition at least 90%? input: CC(=O)Nc1cc(C)ccc1C
OUT: rule not met

IN: // inclusive: growth inhibition at least 90%? input: CC(C)CC(Nc1c(O)ccc2ccccc12)C(=O)O (stereo not given)
OUT: rule met

IN: // inclusive: growth inhibition at least 90%? input: OCC1OC(Sc2ncc[nH]2)C(O)C(O)C1O (stereo not given)
OUT: rule not met

IN: // inclusive: growth inhibition at least 90%? input: COC(=O)[C@@H](NS(=O)(=O)CC12CCC(CC1)C2(C)C)C(C)(C)C
OUT: rule not met

IN: // inclusive: growth inhibition at least 90%? input: OC(c1nc2ccccc2[nH]1)C(O)C(O)C(O)c1nc2ccccc2[nH]1 (stereo not given)
OUT: rule not met

IN: // inclusive: growth inhibition at least 90%? input: C#CC(C)(C)OC(=O)Nc1ccccc1
OUT: rule not met

IN: // inclusive: growth inhibition at least 90%? input: Nc1ncnc2c(C3OC(CO)C(O)C3O)scc12 (stereo not given)
OUT: rule not met

IN: // inclusive: growth inhibition at least 90%? input: OC(C/C=C/c1ccccc1)(c1ccccc1)c1ccccc1
OUT: rule not met

IN: // inclusive: growth inhibition at least 90%? input: CC(=O)NC1CCC(C2CCCCC2)CC1C1CCCCC1 (stereo not given)
OUT: rule not met

IN: // inclusive: growth inhibition at least 90%? input: Oc1c(Cl)cc(Cl)cc1Cc1cc(Cl)cc(Cl)c1O
OUT: rule met

IN: // inclusive: growth inhibition at least 90%? input: CC(=O)OC(OC(C)=O)c1c2ccccc2cc2ccccc12
OUT: rule met

IN: // inclusive: growth inhibition at least 90%? input: CC(C)Oc1ccc(Nc2ccccc2)cc1
OUT: rule not met

IN: // inclusive: growth inhibition at least 90%? input: CC(=O)OCC1OC(n2c(=S)n(-c3ccccc3)c(=O)c3ccccc32)C(OC(C)=O)C(OC(C)=O)C1OC(C)=O (stereo not given)
OUT: rule not met

IN: // inclusive: growth inhibition at least 90%? input: C[N+]1(Cc2ccc(Cl)c(Cl)c2)CCCC1C1CCCN(Cc2ccc(Cl)c(Cl)c2)C1 (stereo not given)
OUT: rule not met

IN: // inclusive: growth inhibition at least 90%? input: Nc1c(C(=O)O)ccc(C(=O)O)c1C(=O)O
OUT: rule not met

IN: // inclusive: growth inhibition at least 90%? input: COc1cccc(NC(=S)N2CCCCC2)c1
OUT: rule not met

IN: // inclusive: growth inhibition at least 90%? input: CCCCCCCCCC(=O)c1ccc(O)c(O)c1O
OUT: rule met

IN: // inclusive: growth inhibition at least 90%? input: COC(O)C(=O)c1c2c(cc3c1CCC3)CCCC2 (stereo not given)
OUT: rule met

IN: // inclusive: growth inhibition at least 90%? input: c1ccc(CSC(SCc2ccccc2)(c2ccccc2)c2ccccc2)cc1
OUT: rule met

IN: // inclusive: growth inhibition at least 90%? input: NNc1c2ccccc2nc2ccccc12
OUT: rule not met

IN: // inclusive: growth inhibition at least 90%? input: COc1ccc(-c2c(C#N)c(-c3ccc(C)cc3)n(NS(=O)(=O)c3ccccc3)c(=O)c2C#N)cc1
OUT: rule met

IN: // inclusive: growth inhibition at least 90%? input: CN(C)C(=S)SC(=S)N(C)C
OUT: rule met

IN: // inclusive: growth inhibition at least 90%? input: NC(=O)SCC(=O)NNc1ccccc1
OUT: rule not met
